# experimental-target: DRB1*0802 (DR8w2) (Homo sapiens, UniProt P01903+P01911, A100R/A103L/A169T/F76Y/H45Y/I96F/K41T/L162R/M171V/P40S/Q125H/Q178H/Q39Y/Q99D/R218S/R42G/S66Y/V115G/W38E)
# Construct: used as sources of human HLA class II molecules; endogenous in cells; host or cells: OLL (EBV-transformed homozygous B cell line)
# measurement-protocol: Class II peptide-binding assay, DR8w2
# recorded-conditions: read-out: In IC50 Format DR8w2 nM; Table VIII; values in parentheses read as lower bounds
pIC50: −log10 of the molar value. Ends that are not written are not given here.
endpoint-label: pIC50

Let me know recorded pIC50 for ARLLDIDETEYHADG [Peptide 39.0366] , thanks. < 4.26

====

IC50 values by entry
# experimental-target: DRB1*0301 (DR3w17) (Homo sapiens, UniProt P01903+P01911, A100K/A102G/A103R/A169T/F55Y/I96L/K41T/L162R/M171V/P40S/Q125H/Q178H/Q39Y/R42S/S66N/T106N/T262R/W38E/Y61H)
# Construct: used as sources of human HLA class II molecules; endogenous in cells; host or cells: MAT (EBV-transformed homozygous B cell line)
# Sequence (P01903 26-254, other chains not shown): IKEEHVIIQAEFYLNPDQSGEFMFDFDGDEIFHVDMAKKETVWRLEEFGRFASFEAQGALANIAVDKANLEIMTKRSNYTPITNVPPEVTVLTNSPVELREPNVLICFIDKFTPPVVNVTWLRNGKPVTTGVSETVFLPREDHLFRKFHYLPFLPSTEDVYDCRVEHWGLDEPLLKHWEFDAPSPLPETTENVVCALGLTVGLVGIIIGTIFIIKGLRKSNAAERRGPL
# measurement-protocol: Class II peptide-binding assay, DR3 (pH 4.5);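 further: unlabeled peptide competing with a radiolabeled probe peptide for binding to affinity-purified HLA-DR3, IC50 regarded as an approximation of Kd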
# recorded-conditions: read-out: In IC50 Format DR3 nM; Table VIII; values in parentheses read as lower bounds
Ends that are not written are not given here.
All answers are understood in µM, so give the number only.

1. NKEILDEAYVMAGVG [Peptide 39.0363]    63.8
2. GDLVDAEEYLVPQQG [Peptide 39.0375]    12
3. QGFFCPDPAPGAGGM [Peptide 39.0376]    66.7

Let me know recorded IC50 for AIKVLRENTSPKANK [Peptide 39.0362] , thanks. 40

====

# experimental-target: DRB1*0701 (DR7) (Homo sapiens, UniProt P01903+P01911, A100R/A102G/A103Q/D57E/D86V/E43K/F76Y/K127E/L162R/M171V/P40G/Q125H/Q99D/R33Q/R42Y/R54Q/S133A/S66F/T210M/V115G/Y107V/Y59L/Y89S)
# measurement-protocol: Class II peptide-binding assay, DR7;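 further: unlabeled peptides compete with an iodinated probe peptide for binding to affinity-purified HLA-DR at neutral pH, DR amount titered to bind a small tracer fraction, IC50 approximating Kd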
# recorded-conditions: Table V A) Non Predictions; read-out: Binding Capacity DR7
Ends that are not written are not given here.
endpoint-label: pIC50
For clarity, pIC50 is expressed as the negative log10 of concentration in mol/L.

Let me know recorded pIC50 for LFHYYFLSEKAPGSTV [Peptide 1136.04] , thanks. 5.48

====

# Tested on: panel of purified HLA DR molecules;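 further: competitive inhibition of radiolabeled probe peptide binding to purified HLA DR molecules, with inhibitory potency of unlabeled peptides taken as an approximation of affinity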
# Assay type: binding, human
# recorded-conditions: Table V B) Correct Predictions; 12 DR molecules listed
endpoint-label: Total Alleles Bound
Please respond with just the number, no unit label.

1) CC(C)[C@H](NC(=O)[C@H](Cc1ccccc1)NC(=O)[C@H](CCCCN)NC(=O)[C@H](Cc1ccc(O)cc1)NC(=O)[C@H](C)N)C(=O)N[C@H](C(=O)N1CCC[C@H]1C(=O)NCC(=O)N[C@@H](C)C(=O)N[C@@H](C)C(=O)N[C@H](C(=O)N1CCC[C@H]1C(=O)N[C@@H](Cc1ccc(O)cc1)C(=O)N[C@@H](C)C(=O)NCC(=O)O)[C@@H](C)O)C(C)C [Peptide 27.412]    8

Let me know recorded Total Alleles Bound for CC[C@H](C)[C@H](NC(=O)[C@H](CO)NC(=O)[C@H](CO)NC(=O)[C@H](CC(N)=O)NC(=O)[C@@H](NC(=O)[C@@H](NC(=O)[C@H](CC(N)=O)NC(=O)[C@@H](N)Cc1ccccc1)C(C)C)C(C)C)C(=O)NCC(=O)N[C@@H](CC(C)C)C(=O)N[C@H](C(=O)N[C@@H](CCSC)C(=O)N[C@H](C(=O)N[C@@H](CC(C)C)C(=O)N[C@@H](CO)C(=O)O)C(C)C)[C@@H](C)CC [Peptide 27.384] , thanks. 4

====

# experimental-target: DRB1*0401 (DR4w4) (Homo sapiens, UniProt P01903+P01911, A100K/A169T/F76Y/I96L/K127E/L162R/M171V/N62H/P40V/Q125Y/R42H/S133A/S149N/S66Y/V115G/V209L/W38E)
# Construct: used as sources of human HLA class II molecules; endogenous in cells; host or cells: PREISS (EBV-transformed homozygous B cell line)
# measurement-protocol: Class II peptide-binding assay, DR4w4;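 further: unlabeled test peptides compete with a radiolabeled probe peptide for binding to affinity-purified HLA-DR, with DR amount titrated to capture a small fraction of label, IC50 approximating Kd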
# recorded-conditions: read-out: DR4w4 nM (In IC50 Format); purified HLA DR4w4
Square brackets hold non-standard residues; d marks the D form. Peptide text beside a SMILES is read from it.
pIC50 values by entry
For clarity, pIC50 is expressed as the negative log10 of concentration in mol/L.

Example results:
1) CC(C)C[C@H](NC(=O)[C@@H](NC(=O)[C@@H](NC(=O)[C@H](CCC(N)=O)NC(=O)[C@H](CCCCN)NC(=O)[C@H](CC(=O)O)NC(=O)[C@H](Cc1ccccc1)NC(=O)[C@@H](CCCNC(=N)N)NC(=O)[C@H](C)NC(=O)[C@H](N)Cc1ccc(O)cc1)[C@@H](C)O)[C@@H](C)O)C(=O)N[C@@H](CCCCN)C(=O)N[C@@H](C)C(=O)N[C@@H](C)C(=O)N[C@H](C)C(=O)O [Peptide 781.19] (H-[dY]A[dR]FDKQTTLKAA[dA]-OH)    8.09
2) CSCC[C@H](N)C(=O)NCC(=O)N[C@@H](CCC(N)=O)C(=O)N[C@@H](CC(N)=O)C(=O)N[C@@H](CC(C)C)C(=O)N[C@@H](CO)C(=O)N[C@H](C(=O)N[C@@H](CO)C(=O)N[C@@H](CC(N)=O)C(=O)N1CCC[C@H]1C(=O)N[C@@H](CC(C)C)C(=O)NCC(=O)N[C@@H](Cc1ccccc1)C(=O)N[C@@H](Cc1ccccc1)C(=O)N1CCC[C@H]1C(=O)N[C@@H](CC(=O)O)C(=O)N[C@@H](Cc1c[nH]cn1)C(=O)O)[C@@H](C)O [Peptide 800.01]    7.16
3) CSCC[C@H](NC(=O)[C@H](CC(C)C)NC(=O)[C@H](CCC(=O)O)NC(=O)CNC(=O)[C@H](Cc1c[nH]c2ccccc12)NC(=O)[C@@H](N)CS)C(=O)N[C@H](C(=O)N[C@@H](CC(C)C)C(=O)N[C@@H](C)C(=O)N[C@H](C(=O)N[C@@H](Cc1c[nH]c2ccccc12)C(=O)N[C@H](C(=O)NCC(=O)N[C@H](C(=O)N[C@@H](CC(N)=O)C(=O)N[C@@H](CC(C)C)C(=O)N[C@@H](CCC(=O)O)C(=O)N[C@@H](CC(=O)O)C(=O)O)C(C)C)C(C)C)[C@@H](C)O)[C@@H](C)O [Peptide 802.02]    6.13

Let me know recorded pIC50 for CC(C)C[C@H](NC(=O)[C@@H](NC(=O)[C@@H](NC(=O)[C@H](CCC(N)=O)NC(=O)[C@H](CCCNC(=N)N)NC(=O)[C@H](CCC(N)=O)NC(=O)[C@H](Cc1ccccc1)NC(=O)[C@H](CCCNC(=N)N)NC(=O)[C@H](C)NC(=O)[C@H](N)Cc1ccc(O)cc1)[C@@H](C)O)[C@@H](C)O)C(=O)N[C@@H](CCCCN)C(=O)N[C@@H](C)C(=O)N[C@@H](C)C(=O)N[C@H](C)C(N)=O [Peptide 781.09] (H-[dY]ARFQRQTTLKAA[dA]-NH2) , thanks. 8.70

Let me know recorded pIC50 for CC[C@H](C)[C@H](NC(=O)[C@H](C)NC(=O)CNC(=O)[C@H](Cc1ccccc1)NC(=O)[C@H](CC(N)=O)NC(=O)[C@H](CC(N)=O)NC(=O)[C@H](N)CO)C(=O)N[C@@H](CC(C)C)C(=O)N[C@@H](CO)C(=O)N[C@@H](CO)C(=O)N[C@H](C(=O)N[C@@H](CC(N)=O)C(=O)N[C@H](C(=O)NCC(N)=O)C(C)C)[C@@H](C)O [Peptide 735.05] (H-[dS]NNFGAILSSTNVG-NH2) , thanks. 6.56

Let me know recorded pIC50 for CC(C)C[C@H](NC(=O)[C@@H](NC(=O)[C@@H](NC(=O)[C@H](CCC(N)=O)NC(=O)[C@H](CCCNC(=N)N)NC(=O)[C@H](CCC(N)=O)NC(=O)[C@H](Cc1ccccc1)NC(=O)[C@H](C)NC(=O)[C@H](C)NC(=O)[C@H](N)Cc1ccc(O)cc1)[C@@H](C)O)[C@@H](C)O)C(=O)N[C@@H](CCCCN)C(=O)N[C@@H](C)C(=O)N[C@@H](C)C(=O)N[C@H](C)C(N)=O [Peptide 781.16] (H-[dY]AAFQRQTTLKAA[dA]-NH2) , thanks. 8.42
